Tested on: LNCaP xenografts
PROCEDURE_SUMMARY: Ex vivo biodistribution and blocking studies in mice bearing LNCaP xenografts
EXPERIMENTAL_CONDITIONS: 1 h blocked (coinjection of DCFPyL 0.5 mg)
blood uptake values by entry
READOUT_NAME: blood uptake

MOLECULE | EXPERIMENTAL_VALUE
C[N+](C)(Cc1cn(CC(=O)N[C@@H](CCC(=O)O)C(=O)NCCCC[C@H](NC(=O)[C@H](CCC(=O)O)NC(=O)Cn2cc(C[N+](C)(C)C[B-](F)(F)F)nn2)C(=O)NC[C@H]2CC[C@H](C(=O)N[C@@H](Cc3ccc4ccccc4c3)C(=O)NCCCC[C@H](NC(=O)N[C@@H](CCC(=O)O)C(=O)O)C(=O)O)CC2)nn1)C[B-](F)(F)F [^18F-8] | 0.39 ± 0.07 %ID/g
O=C(O)CC[C@H](NC(=O)N[C@@H](CCCCNC(=O)c1ccc(Cn2cc(C[n+]3ccc([B-](F)(F)F)cc3)nn2)nc1)C(=O)O)C(=O)O [^18F-4] | 0.24 ± 0.11 %ID/g
C[N+](C)(Cc1ccc(C(=O)NCCCC[C@H](NC(=O)N[C@@H](CCC(=O)O)C(=O)O)C(=O)O)cc1)C[B-](F)(F)F [^18F-1] | 0.45 ± 0.27 %ID/g

###

Test system: LNCaP xenografts
PROCEDURE_SUMMARY: Ex vivo biodistribution and blocking studies in mice bearing LNCaP xenografts
EXPERIMENTAL_CONDITIONS: 1 h after injection, unblocked

COMPOUND | adrenal uptake, %ID/g
C[N+](C)(Cc1cn(CC(=O)NC[C@H]2CC[C@H](C(=O)N[C@@H](Cc3ccc4ccccc4c3)C(=O)NCCCC[C@H](NC(=O)N[C@@H](CCC(=O)O)C(=O)O)C(=O)O)CC2)nn1)C[B-](F)(F)F [^18F-5] | 2.89
O=C(O)CC[C@H](NC(=O)N[C@@H](CCCCNC(=O)c1ccc(Cn2cc(C[n+]3ccc([B-](F)(F)F)cc3)nn2)nc1)C(=O)O)C(=O)O [^18F-4] | 6.66
O=C(O)CCC(NC(=O)NC(CCCCNC(=O)c1ccc([18F])nc1)C(=O)O)C(=O)O (stereo not drawn) [^18F-DCFPyL, reference compound] | 3.02

###

Test system: LNCaP xenografts
PROCEDURE_SUMMARY: Ex vivo biodistribution and blocking studies in mice bearing LNCaP xenografts
EXPERIMENTAL_CONDITIONS: 1 h after injection, unblocked
Output schema: class label derived from heart uptake. Mapping: lo: < 0.2 %ID/g; mid: ≥ 0.2 %ID/g and < 0.3 %ID/g; hi: ≥ 0.3 %ID/g

MOLECULE | CLASS_NAME
C[N+](C)(Cc1cn(CC(=O)NCCOCCOCCC(=O)N[C@@H](Cc2ccc3ccccc3c2)C(=O)NCCCC[C@H](NC(=O)N[C@@H](CCC(=O)O)C(=O)O)C(=O)O)nn1)C[B-](F)(F)F [^18F-7] | lo
C[N+](C)(Cc1cn(Cc2ccc(C(=O)NCCCC[C@H](NC(=O)N[C@@H](CCC(=O)O)C(=O)O)C(=O)O)cn2)nn1)C[B-](F)(F)F [^18F-3] | lo
C[N+](C)(Cc1cn(CC(=O)NC[C@H]2CC[C@H](C(=O)N[C@@H](Cc3ccc4ccccc4c3)C(=O)NCCCC[C@H](NC(=O)N[C@@H](CCC(=O)O)C(=O)O)C(=O)O)CC2)nn1)C[B-](F)(F)F [^18F-5] | hi
C[N+](C)(Cc1cn(CC(=O)N[C@@H](CCC(=O)O)C(=O)NCCCC[C@H](NC(=O)[C@H](CCC(=O)O)NC(=O)Cn2cc(C[N+](C)(C)C[B-](F)(F)F)nn2)C(=O)NC[C@H]2CC[C@H](C(=O)N[C@@H](Cc3ccc4ccccc4c3)C(=O)NCCCC[C@H](NC(=O)N[C@@H](CCC(=O)O)C(=O)O)C(=O)O)CC2)nn1)C[B-](F)(F)F [^18F-8] | mid
O=C(O)CC[C@H](NC(=O)N[C@@H](CCCCNC(=O)c1ccc(Cn2cc(C[n+]3ccc([B-](F)(F)F)cc3)nn2)nc1)C(=O)O)C(=O)O [^18F-4] | hi
O=C(O)CCC(NC(=O)NC(CCCCNC(=O)c1ccc([18F])nc1)C(=O)O)C(=O)O (stereo not drawn) [^18F-DCFPyL, reference compound] | hi
O=C(O)CC[C@H](NC(=O)N[C@@H](CCCCNC(=O)[C@H](Cc1ccc2ccccc2c1)NC(=O)[C@H]1CC[C@H](CNC(=O)Cn2cc(C[n+]3ccc([B-](F)(F)F)cc3)nn2)CC1)C(=O)O)C(=O)O [^18F-6] | mid
C[N+](C)(Cc1cn(Cc2ccc(C(=O)NCCCC[C@H](NC(=O)N[C@@H](CCC(=O)O)C(=O)O)C(=O)O)cc2)nn1)C[B-](F)(F)F [^18F-2] | hi

###

Tested on: LNCaP xenografts
PROCEDURE_SUMMARY: Ex vivo biodistribution and blocking studies in mice bearing LNCaP xenografts
EXPERIMENTAL_CONDITIONS: 1 h after injection, unblocked

COMPOUND | ENDPOINT_UNIT | pancreas uptake
C[N+](C)(Cc1cn(CC(=O)NCCOCCOCCC(=O)N[C@@H](Cc2ccc3ccccc3c2)C(=O)NCCCC[C@H](NC(=O)N[C@@H](CCC(=O)O)C(=O)O)C(=O)O)nn1)C[B-](F)(F)F [^18F-7] | %ID/g | 0.13
O=C(O)CC[C@H](NC(=O)N[C@@H](CCCCNC(=O)[C@H](Cc1ccc2ccccc2c1)NC(=O)[C@H]1CC[C@H](CNC(=O)Cn2cc(C[n+]3ccc([B-](F)(F)F)cc3)nn2)CC1)C(=O)O)C(=O)O [^18F-6] | %ID/g | 0.26
O=C(O)CCC(NC(=O)NC(CCCCNC(=O)c1ccc([18F])nc1)C(=O)O)C(=O)O (stereo not drawn) [^18F-DCFPyL, reference compound] | %ID/g | 0.58
C[N+](C)(Cc1cn(Cc2ccc(C(=O)NCCCC[C@H](NC(=O)N[C@@H](CCC(=O)O)C(=O)O)C(=O)O)cn2)nn1)C[B-](F)(F)F [^18F-3] | %ID/g | 0.27
C[N+](C)(Cc1cn(CC(=O)N[C@@H](CCC(=O)O)C(=O)NCCCC[C@H](NC(=O)[C@H](CCC(=O)O)NC(=O)Cn2cc(C[N+](C)(C)C[B-](F)(F)F)nn2)C(=O)NC[C@H]2CC[C@H](C(=O)N[C@@H](Cc3ccc4ccccc4c3)C(=O)NCCCC[C@H](NC(=O)N[C@@H](CCC(=O)O)C(=O)O)C(=O)O)CC2)nn1)C[B-](F)(F)F [^18F-8] | %ID/g | 0.46
C[N+](C)(Cc1cn(Cc2ccc(C(=O)NCCCC[C@H](NC(=O)N[C@@H](CCC(=O)O)C(=O)O)C(=O)O)cc2)nn1)C[B-](F)(F)F [^18F-2] | %ID/g | 0.33
C[N+](C)(Cc1ccc(C(=O)NCCCC[C@H](NC(=O)N[C@@H](CCC(=O)O)C(=O)O)C(=O)O)cc1)C[B-](F)(F)F [^18F-1] | %ID/g | 0.55
O=C(O)CC[C@H](NC(=O)N[C@@H](CCCCNC(=O)c1ccc(Cn2cc(C[n+]3ccc([B-](F)(F)F)cc3)nn2)nc1)C(=O)O)C(=O)O [^18F-4] | %ID/g | 0.68
C[N+](C)(Cc1cn(CC(=O)NC[C@H]2CC[C@H](C(=O)N[C@@H](Cc3ccc4ccccc4c3)C(=O)NCCCC[C@H](NC(=O)N[C@@H](CCC(=O)O)C(=O)O)C(=O)O)CC2)nn1)C[B-](F)(F)F [^18F-5] | %ID/g | 0.30

###

We begin with a simple list: items and their reported tumor uptake.
System: LNCaP xenografts
PROCEDURE_SUMMARY: Ex vivo biodistribution and blocking studies in mice bearing LNCaP xenografts
EXPERIMENTAL_CONDITIONS: LNCaP tumor, 1 h blocked (coinjection of DCFPyL 0.5 mg)

COMPOUND | TARGET_OF_ASSAY | tumor uptake
C[N+](C)(Cc1cn(Cc2ccc(C(=O)NCCCC[C@H](NC(=O)N[C@@H](CCC(=O)O)C(=O)O)C(=O)O)cn2)nn1)C[B-](F)(F)F [^18F-3] | LNCaP xenografts | 0.35 ± 0.21 %ID/g
O=C(O)CC[C@H](NC(=O)N[C@@H](CCCCNC(=O)c1ccc(Cn2cc(C[n+]3ccc([B-](F)(F)F)cc3)nn2)nc1)C(=O)O)C(=O)O [^18F-4] | LNCaP xenografts | 0.18 ± 0.11 %ID/g
O=C(O)CC[C@H](NC(=O)N[C@@H](CCCCNC(=O)[C@H](Cc1ccc2ccccc2c1)NC(=O)[C@H]1CC[C@H](CNC(=O)Cn2cc(C[n+]3ccc([B-](F)(F)F)cc3)nn2)CC1)C(=O)O)C(=O)O [^18F-6] | LNCaP xenografts | 0.37 ± 0.10 %ID/g
